- Experimental target: T1, human NGF (human, UniProt P01138 122-241)
- T1 construct: also called human Nerve Growth Factor; hN
- T1 chain: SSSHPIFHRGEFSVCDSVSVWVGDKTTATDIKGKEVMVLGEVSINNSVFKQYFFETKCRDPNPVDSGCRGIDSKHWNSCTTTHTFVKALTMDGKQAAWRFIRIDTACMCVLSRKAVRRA
- Assay name: SPR (Biacore), human NGF amine-coupled on chip, antibody injected
Item-by-item account of koff
Experimental endpoint: koff (s⁻¹)

{"columns": ["Binder", "Units symbol", "Reported result"],
 "data": [
  ["humanized mAb can48L2VH_HM855336.1 / can48L2VL_Z22192.1_P14L (antibody, V domains shown) VH: EVQLVESGGGLVQPGGSLRLSCAASGFTFSTYGMNWVRQAPGKGLEWVSYISSGGSSIYYADSVKGRFTISRDNAKNSLYLQMNSLRAEDTAVYYCAGSRYTYAYGGGYEFHFWGQGTLVTVSS VL: QSVVTQPPSVSGALGQRVTISCTGSTMDIDIFGVSWYQQLPGTAPKLLIYGDGDRPSGVPDRFSGSKSGASASLAITGLQAEDEADYHCQSGDSTLGALAIFGGGTHVTVL", "s⁻¹", 0.000422],
  ["humanized mAb can9L12VH / can9L12VL_M94116_65698 (antibody, V domains shown) VH: EVQLVESGGDLVKPGGSLRLSCVASGFTFSSHGMHWVRQSPGKGLQWVAVINSGGSSTYYTDAVKGRFTISRDNAKNTVYLQMNSLRAEDTAMYYCAKESVGGWEQLVGPHFDYWGQGTLVIVSS VL: QSVLTQPTSVSGAPGQRVTISCTGSTNNIGILGVHWYQQLPGTAPKLLIYGNGNRPSGVPDRFSGADSGDSVSLAITGLQAEDEADYYCQSFDTTLGAHVFGGGTHLTVL", "s⁻¹", 0.00197],
  ["humanized mAb can9L12VH_HM855939 / can9L12VL (antibody, V domains shown) VH: QVQLVESGGGVVQPGGSLRLSCAASGFTFSSHGMHWVRQAPGKGLEWVSVINSGGSSTYYADSVKGRFTISRDNSKNTLYLQMNSLRAEDTAVYYCAKESVGGWEQLVGPHFDYWGQGTLVIVSS VL: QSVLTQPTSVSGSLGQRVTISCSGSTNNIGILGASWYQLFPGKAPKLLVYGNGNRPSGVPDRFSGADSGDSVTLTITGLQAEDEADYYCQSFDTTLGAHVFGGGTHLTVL", "s⁻¹", 0.00161]
]}
